Biological target: SIK2 kinase (full length, Thermo Fisher) (Homo sapiens, UniProt Q9H0K1)
Construct: SIK2 kinase (full length, Thermo Fisher); purchased Thermo Fisher
Sequence (Q9H0K1 whole entry): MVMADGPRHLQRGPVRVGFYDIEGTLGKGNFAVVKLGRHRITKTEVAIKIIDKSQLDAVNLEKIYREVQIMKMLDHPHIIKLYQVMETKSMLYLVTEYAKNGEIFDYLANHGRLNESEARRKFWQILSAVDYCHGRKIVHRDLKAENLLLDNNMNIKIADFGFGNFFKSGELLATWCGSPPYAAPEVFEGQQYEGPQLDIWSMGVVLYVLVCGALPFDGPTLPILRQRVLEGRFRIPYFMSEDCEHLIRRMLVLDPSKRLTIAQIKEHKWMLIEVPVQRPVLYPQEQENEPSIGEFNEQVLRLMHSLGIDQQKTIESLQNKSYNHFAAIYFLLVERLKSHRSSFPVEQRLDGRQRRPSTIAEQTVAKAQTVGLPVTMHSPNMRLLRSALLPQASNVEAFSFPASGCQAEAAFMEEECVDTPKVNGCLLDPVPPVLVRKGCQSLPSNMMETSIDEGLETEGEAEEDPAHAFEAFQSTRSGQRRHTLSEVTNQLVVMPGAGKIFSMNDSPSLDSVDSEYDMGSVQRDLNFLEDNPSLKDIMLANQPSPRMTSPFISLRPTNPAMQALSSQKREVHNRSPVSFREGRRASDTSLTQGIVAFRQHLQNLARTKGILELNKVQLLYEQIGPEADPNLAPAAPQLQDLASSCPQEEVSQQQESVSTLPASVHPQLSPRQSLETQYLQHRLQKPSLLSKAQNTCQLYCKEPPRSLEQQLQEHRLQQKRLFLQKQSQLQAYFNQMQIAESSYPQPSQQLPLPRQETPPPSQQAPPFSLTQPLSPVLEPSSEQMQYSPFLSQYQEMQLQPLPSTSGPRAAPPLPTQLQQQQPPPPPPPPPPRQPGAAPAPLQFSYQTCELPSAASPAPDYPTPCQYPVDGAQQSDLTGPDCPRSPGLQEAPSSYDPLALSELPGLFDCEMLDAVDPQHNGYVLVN
Test: Biochemical activities determination for SIK2 protein (TR-FRET)
Conditions: 80 uM ATP, 0.5 μM substrate
# label = y if IC50 < 400 nM else n

[[record]]
chemical_structure = "CN1CCC[C@H]1COc1cc(-c2coc3cc(OCCN4CCCC4)ccc23)cc(OC(F)F)c1C(=O)NC1CC1"
label_class = "n"

[[record]]
chemical_structure = "CC(C)Oc1cc(-c2coc3cc(OCCN4CCCC4)ccc23)cc(OC(F)F)c1C(=O)NC1CC1"
label_class = "n"

[[record]]
chemical_structure = "COc1cc(-c2coc3cc(-c4cnn(C5CN(C)C5)c4)ccc23)cc2c1C(=O)N(CC(F)(F)F)CC2"
label_class = "y"

[[record]]
chemical_structure = "O=C(NC1CC1)c1c(OC(F)F)cc(-c2coc3cc(OCCN4CCCC4)ccc23)cc1OC1CC1"
label_class = "n"

[[record]]
chemical_structure = "COc1cc(-c2coc3cc(OCCN4CCCC4)ccc23)cc(OC(F)F)c1C(=O)NC1CCC1"
label_class = "y"

[[record]]
chemical_structure = "COc1cc(-c2coc3cc(OCCN4CCC(C)CC4)ccc23)cc(OC(F)F)c1C(=O)N[C@@H]1C[C@@H]1F"
label_class = "y"

[[record]]
chemical_structure = "COc1cc(-c2coc3cc(-c4ccc(C)nn4)ccc23)cc(OC(F)F)c1C(=O)NC1CC1"
label_class = "y"

[[record]]
chemical_structure = "COc1cc(-c2coc3cc(OCCCN4CCOCC4)ccc23)cc(OC(F)F)c1C(=O)N[C@@H]1C[C@@H]1F"
label_class = "y"

